Listed next: entries and their corresponding pIC50.
Target: FP receptor (Homo sapiens (Human))
Sequence (P43088 whole entry): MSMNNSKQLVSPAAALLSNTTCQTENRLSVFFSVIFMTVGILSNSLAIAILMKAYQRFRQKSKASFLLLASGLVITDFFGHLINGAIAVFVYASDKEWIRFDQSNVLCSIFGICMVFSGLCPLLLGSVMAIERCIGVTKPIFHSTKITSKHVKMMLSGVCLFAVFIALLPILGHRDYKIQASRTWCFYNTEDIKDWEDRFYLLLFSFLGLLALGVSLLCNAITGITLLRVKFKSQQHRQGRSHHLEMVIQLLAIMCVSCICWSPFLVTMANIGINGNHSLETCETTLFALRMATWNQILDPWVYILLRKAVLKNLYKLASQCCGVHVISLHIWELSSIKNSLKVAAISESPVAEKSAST
Assay: In vitro test of inhibition of human FP receptor activity (PGF2α-induced calcium flux in FP-expressing CHEM1 cells)
Settings: PGF2α-induced (2 nM) calcium flux in FP-expressing CHEM1 cells; some as mean values from multiple determinations
Note: pIC50 values are expressed as the negative base-10 logarithm of concentration in M.

Cc1c(-c2ccccc2)nc2ccc(Br)cc2c1C(=O)NCC(CCC(=O)O)c1c(Cl)ccc(Cl)c1Cl (racemic) [Example 234]	8.14

*Q* Looking for the measured pIC50 of Cc1c(-c2ccccc2)nc2ccc(Br)cc2c1C(=O)NCC(CC(=O)O)c1c(Cl)cccc1Cl (racemic) [Example 78] , can you help?
*A* 7.00

*Q* Fill blank: measured pIC50 of the molecule Cc1c(-c2ccccc2)nc2ccc(Br)cc2c1C(=O)NCC(C)(CCCC(=O)O)c1ccccc1Cl (single isomer, unassigned; (+)) [Example 242] is ____.
*A* 7.80
